# measuredOn: human M4 muscarinic acetylcholine receptor (Homo sapiens, UniProt P08173)
# Construct: expressed in transfected cells
# Sequence (P08173 whole entry): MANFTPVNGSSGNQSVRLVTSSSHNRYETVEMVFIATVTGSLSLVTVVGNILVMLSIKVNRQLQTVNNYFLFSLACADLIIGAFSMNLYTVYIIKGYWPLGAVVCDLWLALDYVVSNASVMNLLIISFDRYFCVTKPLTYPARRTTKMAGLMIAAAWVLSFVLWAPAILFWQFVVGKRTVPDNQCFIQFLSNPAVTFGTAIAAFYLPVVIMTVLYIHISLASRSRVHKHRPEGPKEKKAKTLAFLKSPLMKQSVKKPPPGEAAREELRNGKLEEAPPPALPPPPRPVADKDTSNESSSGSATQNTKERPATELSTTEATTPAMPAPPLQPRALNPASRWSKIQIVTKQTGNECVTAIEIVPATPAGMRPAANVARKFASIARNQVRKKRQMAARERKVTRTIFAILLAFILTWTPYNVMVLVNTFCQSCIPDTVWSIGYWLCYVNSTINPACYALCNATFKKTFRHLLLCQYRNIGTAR
# experiment: human FLIPR-based M4 PAM assay (CHO-K1 cells with human M4 receptor and Gαqi5, calcium dye fluorescence)
# Type: cell-based
# conditionDetails: inflection point of 4 parameter logistic fit; acetylcholine added at 20% of maximum response; read-out: M4PAM IP
measuredQuantity: log10 of EC50 (log10 of the value in nM)
On a log10 scale: recorded EC50, unit nM.

Reported log10 of EC50 for `Cc1cc(-c2cnn(CC3(C(F)(F)F)CC3)c2)c(-c2ccn3ccnc3c2)nc1C#N` : what is it? 1.78

Reported log10 of EC50 for `CN1Cc2ncc(-c3nc(C#N)ccc3-c3cnn(CC(C)(C)C)c3)cc2C1=O` : what is it? 1.97

Reported log10 of EC50 for `Cc1ccc(-c2cnn(CC34CCC(CC3)CC4)c2)c(-c2ccc3c(c2)C(=O)N(CC2CC2)C3)n1` : what is it? 1.39

Reported log10 of EC50 for `N#Cc1ccc(-c2cnn(C[C@H]3C[C@@H]3C(F)(F)F)c2)c(-c2ccn3ccnc3c2)n1` : what is it? 1.89

Reported log10 of EC50 for `Cc1cn2ccc(-c3ncccc3-c3cnn(CC4(CC(F)F)CC4)c3)cc2n1` : what is it? 2.44

Reported log10 of EC50 for `CC(C)(C)Cn1cc(-c2ccc(C#N)nc2-c2ccc3nn[nH]c3c2)cn1` : what is it? 1.58

Reported log10 of EC50 for `COCc1nc2cc(-c3nc(C#N)ccc3-c3cnn(CC(C)(C)C)c3)ccn2n1` : what is it? 1.85

Reported log10 of EC50 for `Cc1nc2cc(-c3nc(C#N)ccc3-c3cnn(CC4(C(C)(F)F)CC4)c3)ccc2n1C` : what is it? 1.82

###

# measuredOn: human M4 muscarinic acetylcholine receptor (Homo sapiens)
# Construct: expressed in transfected cells
# experiment: human FLIPR-based M4 PAM assay (CHO-K1 cells with human M4 receptor and Gαqi5, calcium dye fluorescence)
# Format: cell-based
# conditionDetails: read-out: HuM4PAM
measuredQuantity: pEC50
Just so you know, pEC50 here is -log10 of the concentration in molar units; reply with that number alone.

Which pEC50 is reported with human M4 muscarinic acetylcholine receptor (Homo sapiens) for this entry: `CC(C)(F)Cn1cc(-c2ccc(C#N)nc2-c2ccn3ccnc3c2)cn1` ? 6.97

###

# measuredOn: human M4 muscarinic acetylcholine receptor (Homo sapiens)
# Construct: expressed in transfected cells
# experiment: human FLIPR-based M4 PAM assay (CHO-K1 cells with human M4 receptor and Gαqi5, calcium dye fluorescence)
# Assay type: cell-based
# conditionDetails: inflection point of 4 parameter logistic fit; acetylcholine added at 20% of maximum response; read-out: M4PAM IP
measuredQuantity: EC50 (µM)
Use µM as the unit, but write only the number.

Reported EC50 for `Cc1nc(-c2ccc3c(c2)nc(C)n3C)c(-c2cnn(CC(C)(C)C(F)(F)F)c2)cc1F` : what is it? 0.0773

Reported EC50 for `Cc1cn2ccc(-c3nc(C#N)ccc3-c3cnn(CC(F)(F)C(F)(F)C(F)F)c3)cc2n1` : what is it? 0.0423

Reported EC50 for `CC(C)(C)Cn1cc(-c2ccc(C#N)nc2-c2ccn3c(F)cnc3c2)cn1` : what is it? 0.0516

Reported EC50 for `Cc1cn2ccc(-c3nc(C#N)ccc3-c3cnn(CC4(C(F)F)CC4)c3)cc2n1` : what is it? 0.0491

Reported EC50 for `CC(C)(C)Cn1cc(-c2ccc(C#N)nc2-c2ccc3cnnn3c2)cn1` : what is it? 0.235

Reported EC50 for `CC(C)C1(Cn2cc(-c3ccc(C#N)nc3-c3ccn4ccnc4c3)cn2)CC1` : what is it? 0.0374

Reported EC50 for `Cc1cn2ccc(-c3nc(C#N)ccc3-c3cnn(CC(C)(C)CC(F)(F)F)c3)cc2n1` : what is it? 0.0617

Reported EC50 for `Cc1nc2cc(-c3nc(C#N)ccc3-c3cnn(C[C@]4(F)C[C@H](F)C4)c3)ccc2n1C` : what is it? 0.114

Reported EC50 for `Cc1cn2ccc(-c3nc(C#N)ccc3-c3cnn(CCC(C)(C)C#N)c3)cc2n1` : what is it? 0.174

Reported EC50 for `Cc1ccc(-c2cnn(CC3(C)CCCCC3)c2)c(-c2cnc3c(c2)ncn3C)n1` : what is it? 0.0388

Reported EC50 for N#Cc1ccc(-c2cnn(CC3CC34CC4)c2)c(-c2ccn3ccnc3c2)n1 (centres unmarked) : what is it? 0.0546

Reported EC50 for Cc1cn2ccc(-c3nc(C#N)ccc3-c3cnn(CC(C)C(F)(F)F)c3)cc2n1 (centres unmarked) : what is it? 0.0391

Reported EC50 for `Cc1ccc(-c2cnn(CC34CC(C3)C4)c2)c(-c2ccc3c(c2)C(=O)N(C)C3)n1` : what is it? 0.0176

Reported EC50 for `FC(F)(F)C1(Cn2cc(-c3ccc(Cl)nc3-c3ccn4ccnc4c3)cn2)CC1` : what is it? 0.0654

Reported EC50 for `Cc1ccc(-c2cnn(CCC(C)C)c2C#N)c(-c2ccn3ccnc3c2)n1` : what is it? 0.741

Reported EC50 for `CC(C)(Cn1cc(-c2ccc(C(N)=O)nc2-c2ccn3ccnc3c2)cn1)C(F)(F)F` : what is it? 0.249

Reported EC50 for `Cc1cn2ccc(-c3ncc(F)cc3-c3cnn(CC(C)(C)C(F)F)c3)cc2n1` : what is it? 0.0695

###

# measuredOn: human M4 muscarinic acetylcholine receptor (Homo sapiens, UniProt P08173)
# Construct: expressed in transfected cells
# experiment: human FLIPR-based M4 PAM assay (CHO-K1 cells with human M4 receptor and Gαqi5, calcium dye fluorescence)
# Assay type: cell-based
# conditionDetails: inflection point of 4 parameter logistic fit; acetylcholine added at 20% of maximum response; read-out: M4PAM IP
measuredQuantity: EC50 (µM)
Use µM as the unit, but write only the number.

Reported EC50 for `Cc1cn2ccc(-c3ncccc3-c3cnn(CC(C)(C)C)c3)cc2n1` : what is it? 0.121

Reported EC50 for `CC(C)CCn1cc(-c2ccc(Cl)nc2-c2ccc3c(c2)C(=O)N(Cc2ccccc2F)C3)cn1` : what is it? 0.054

Reported EC50 for `Cc1cn2ccc(-c3nc(C#N)ccc3-c3cnn(CC(C)(C)CO)c3)cc2n1` : what is it? 0.139

Reported EC50 for `Cc1ccc(-c2cnn(CCC(C)C)c2)c(-c2ccc3c(c2)CNC3)n1` : what is it? 0.106

###

# measuredOn: human M4 muscarinic acetylcholine receptor (Homo sapiens, UniProt P08173)
# Construct: expressed in transfected cells
# experiment: human FLIPR-based M4 PAM assay (CHO-K1 cells with human M4 receptor and Gαqi5, calcium dye fluorescence)
# Format: cell-based
# conditionDetails: inflection point of 4 parameter logistic fit; acetylcholine added at 20% of maximum response; read-out: M4PAM IP
pEC50: −log10 of the molar value.
Binary call on pEC50: satisfied from 7 upward, not satisfied beneath that.

Could you tell me if the measured pEC50 of CC(C)(C#N)Cn1cc(-c2ccc(C#N)nc2-c2ccn3ccnc3c2)cn1 [Example 46] reaches 7 or more? not satisfied

Could you tell me if the measured pEC50 of N#Cc1ccc(-c2cnn(CC(F)C3CC3)c2)c(-c2ccn3ccnc3c2)n1 (stereo not shown) [Example 124] reaches 7 or more? satisfied

Could you tell me if the measured pEC50 of N#Cc1ccc(-c2cnn(CC(F)(F)C3CC3)c2)c(-c2ccn3ccnc3c2)n1 [Example 1] reaches 7 or more? satisfied

Could you tell me if the measured pEC50 of CCC(C)(C)Cn1cc(-c2ccc(C#N)nc2-c2ccn3ccnc3c2)cn1 [Example 91] reaches 7 or more? satisfied

Could you tell me if the measured pEC50 of Cn1nnc2cc(-c3nc(C#N)ccc3-c3cnn(CC(C)(C)C)c3)ccc21 [Example 68] reaches 7 or more? satisfied

Could you tell me if the measured pEC50 of Cc1cn2ccc(-c3nc(C#N)ccc3-c3cnn(CC(F)(F)C(F)F)c3)cc2n1 [Example 22] reaches 7 or more? not satisfied

Could you tell me if the measured pEC50 of Cc1nc2cc(-c3nc(C#N)ccc3-c3cnn(C[C@]4(F)C[C@@H](F)C4)c3)ccc2n1C [Example 128] reaches 7 or more? satisfied

Could you tell me if the measured pEC50 of Fc1cc(-c2cnn(CC3(C(F)(F)F)CC3)c2)c(-c2ccn3ccnc3c2)nc1F [Example 53] reaches 7 or more? not satisfied

Could you tell me if the measured pEC50 of Cc1nc2cc(-c3ncccc3-c3cnn(CC4(F)CC(F)(F)C4)c3)ccn2n1 [Example 130] reaches 7 or more? not satisfied

Could you tell me if the measured pEC50 of CC(C)(C)Cn1cc(-c2ccc(C(F)(F)F)nc2-c2ccn3ccnc3c2)cn1 [Example 83] reaches 7 or more? satisfied

Could you tell me if the measured pEC50 of CC(C)(C)Cn1cc(-c2ccc(C#N)nc2-c2ccn3c(Cl)cnc3c2)cn1 [Example 117] reaches 7 or more? satisfied

Could you tell me if the measured pEC50 of CC(C)(C)Cn1cc(-c2ccc(C#N)nc2-c2ccn3cc(Cl)nc3c2)cn1 [Example 67] reaches 7 or more? satisfied

Could you tell me if the measured pEC50 of CC(C)(C)Cn1cc(-c2ccc(C#N)nc2-c2ccn3cc(C(F)F)nc3c2)cn1 [Example 64] reaches 7 or more? satisfied

Could you tell me if the measured pEC50 of Cc1ccc(-c2cnn(CC34CC(C3)C4)c2)c(-c2ccc3c(c2)C(=O)NC3)n1 [Example 8] reaches 7 or more? satisfied

Could you tell me if the measured pEC50 of Cn1cnc2cc(-c3nc(C#N)ccc3-c3cnn(CC4(C)CCOCC4)c3)ccc21 [Example 38] reaches 7 or more? not satisfied

Could you tell me if the measured pEC50 of CN1Cc2ccc(-c3nc(C#N)c(F)cc3-c3cnn(CC4(C(F)(F)F)CC4)c3)cc2C1=O [Example 54] reaches 7 or more? satisfied

Could you tell me if the measured pEC50 of CC(C)CCn1cc(-c2ccc(Cl)nc2-c2ccc3c(c2)C(=O)N(CC(F)(F)F)C3)cn1 [Example 111] reaches 7 or more? satisfied

Could you tell me if the measured pEC50 of N#Cc1ccc(-c2cnn(CC3CCC3)c2)c(-c2ccn3ccnc3c2)n1 [Example 93] reaches 7 or more? satisfied

Could you tell me if the measured pEC50 of N#Cc1ccc(-c2cnn(CC3(CF)CC3)c2)c(-c2ccn3ccnc3c2)n1 [Example 19] reaches 7 or more? satisfied

Could you tell me if the measured pEC50 of CN1Cc2ccc(-c3nc(C#N)ccc3-c3cnn(CC(C)(C)C(F)F)c3)cc2C1=O [Example 97] reaches 7 or more? satisfied
